# target system: brain KMO (Rattus norvegicus, UniProt O88867)
# Construct: from tissue; host or cells: rat brain cortex, mitochondrial fraction (male Wistar rats)
# Sequence (O88867 whole entry): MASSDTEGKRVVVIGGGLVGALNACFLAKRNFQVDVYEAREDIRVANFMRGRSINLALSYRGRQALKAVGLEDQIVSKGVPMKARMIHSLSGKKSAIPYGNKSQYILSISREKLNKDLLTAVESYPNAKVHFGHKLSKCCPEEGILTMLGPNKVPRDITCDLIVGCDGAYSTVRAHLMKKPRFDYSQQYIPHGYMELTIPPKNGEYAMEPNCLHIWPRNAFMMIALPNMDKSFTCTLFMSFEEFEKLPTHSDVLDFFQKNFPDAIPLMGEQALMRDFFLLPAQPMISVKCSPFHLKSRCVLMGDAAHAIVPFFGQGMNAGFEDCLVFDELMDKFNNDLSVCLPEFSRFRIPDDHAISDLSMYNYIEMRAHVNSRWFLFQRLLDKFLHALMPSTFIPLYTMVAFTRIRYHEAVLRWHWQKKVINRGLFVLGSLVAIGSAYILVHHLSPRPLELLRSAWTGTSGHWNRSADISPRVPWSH
# assay info: In vitro KMO activity determination (rat brain mitochondria preparation, HPLC of 3-OH-KYN formation)
# Type: biochemical
# experimental parameters: in vitro brain KMO, without pre-incubation, KYN 50 µM, 60 min at 37°C; read-out: IC50
observation type: IC50
Could you kindly put the unit after your number?

Consider O=C(OC[C@H]1O[C@H](O)[C@H](O)[C@@H](O)[C@H]1O)[C@H]1C[C@@H]1C(=O)c1ccc(Cl)c(Cl)c1 . Its measured IC50 is 66 nM
